Test: Growth inhibition of human A172 cells after 6 days
Type: functional, cell-based
Conditions: a 172
// assign MET if relative cell growth falls strictly below 1, else NOT MET (ties count as NOT MET)

COC[C@@]12CC[C@H](OC)[C@]34C(C([C@H](OC)[C@H]13)[C@]1(OC(C)=O)[C@H]3[C@@H](OC(=O)c5ccccc5)[C@](O)(C[C@H]34)[C@@H](OC)[C@@H]1O)N(C)C2 | NOT MET
C=C1[C@H]2C[C@H]3C4N5C[C@]6(C)CCC[C@]47[C@H]([C@H]2O)C3(CC5[C@H]67)[C@@H]1O | MET
C=C1[C@@H](OC(C)=O)[C@]23C[C@@H]1[C@@H](OC(C)=O)C[C@H]2[C@@]12C4C3C[C@@H]1[C@@](C)(CC[C@H]2O)CN4CC | NOT MET
COC[C@]12CC[C@H]3OC1NC1[C@@]34[C@@H]3C[C@H]5[C@H](OC)[C@@H]3[C@](O)(C[C@@H]5OC)[C@]1(O)[C@@H](OC)[C@H]24 | NOT MET

Check if relative cell growth falls below 1 for C=C1[C@H]2C[C@H]3C4N5C[C@]6(C)CCC[C@]47[C@H]([C@H]2OC(=O)c2ccc(OC)c(OC)c2)C3(C[C@]5(O)[C@H]67)[C@@H]1O .
MET

C=C1[C@H]2C[C@H]3C4N5C[C@]6(C)CCC[C@]47[C@H]([C@H]2OC(=O)c2ccccc2)C3(C[C@]5(OC(=O)c2ccccc2)[C@H]67)[C@@H]1O , same question.
MET

C=C1[C@@H](OC(C)=O)[C@]23C[C@@H]1[C@@H](O)C[C@H]2[C@@]12C4C3C[C@@H]1[C@@]1(C)CC[C@H]2OC1N4CC [DEHYDROLUCIDUSCULINE] , same question.
NOT MET

C=C1[C@H]2C[C@H]3C4N5C[C@]6(C)CCC[C@]47[C@H]([C@H]2O)C3(C[C@]5(OC(=O)c2cccc(C(F)(F)F)c2)[C@H]67)[C@@H]1O , same question.
NOT MET

C=C1[C@H]2C[C@H]3C4N5C[C@]6(C)CCC[C@]47[C@H]([C@H]2O)C3(C[C@]5(O)[C@H]67)[C@@H]1OC(=O)c1ccc(OC)c(OC)c1 , same question.
MET

====

Experiment: Growth inhibition of human A172 cells after 6 days
Format: functional, cell-based
Conditions: a 172
The recorded relative cell growth of each item maps onto one of these classes: low class: < 0.8; middle class: ≥ 0.8 and < 1; high class: ≥ 1

Use the examples below as a reference point.
C=C1[C@H]2C[C@H]3C4N5C[C@]6(C)CCC[C@]47[C@H]([C@H]2OC(=O)/C=C/c2ccccc2)C3(C[C@]5(O)[C@H]67)[C@@H]1O | low class
C=C1[C@@H](O)[C@]23C[C@@H]1[C@@H](OC(=O)c1ccc(OC)cc1)C[C@H]2[C@@]12C4C3C[C@@H]1[C@@](C)(CC[C@H]2O)CN4CC | middle class
C=C1[C@H]2C[C@H]3C4N5C[C@]6(C)CCC[C@]47[C@H]([C@H]2O)C3(C[C@]5(OC(=O)c2ccccc2)[C@H]67)[C@@H]1O | middle class
C=C1[C@H]2C[C@H]3C4N5C[C@]6(C)CCC[C@]47[C@H]([C@H]2O)C3(C[C@]5(OC(=O)c2ccc(OC)c(OC)c2)[C@H]67)[C@@H]1O | middle class
COC[C@]12CC[C@H]3OC1NC1[C@@]34[C@@H]3C[C@H]5[C@H](O)[C@@H]3[C@](O)(C[C@@H]5OC)[C@]1(O)[C@@H](OC)[C@H]24 | high class

Textbook exercise: identify the category of the molecule given here, C=C1[C@H]2C[C@H]3C4N5C[C@]6(C)CCC[C@]47[C@H]([C@H]2O)C3(C[C@]5(OC(=O)c2ccc([N+](=O)[O-])cc2)[C@H]67)[C@@H]1O , according to its measured value.
middle class

C=C1[C@@H](O)[C@]23C[C@@H]1[C@@H](OC(=O)c1ccc(OC)c(OC)c1)C[C@H]2[C@@]12C4C3C[C@@H]1[C@@](C)(CC[C@H]2O)CN4CC , same question.
middle class

CCN1C[C@]2(COC)[C@H](O)C[C@H](OC)[C@]34C1C([C@H](OC)[C@H]23)[C@]1(OC)[C@H]2[C@@H](OC(=O)c3ccc(OC)cc3)[C@](O)(C[C@H]24)[C@@H](OC)[C@@H]1O , same question.
middle class

C=C1[C@H]2C[C@H]3C4N5C[C@]6(C)CCC[C@]47[C@H]([C@H]2OC(=O)c2ccc([N+](=O)[O-])cc2)C3(C[C@]5(O)[C@H]67)[C@@H]1O , same question.
low class

CCN1C[C@]2(COC)CC[C@H](O)[C@]34C1[C@@](O)([C@@H](OC)[C@H]23)[C@@]1(O)C[C@H](OC)[C@H]2C[C@@H]4[C@@H]1[C@H]2OC(C)=O , same question.
high class
